- Assayed System: Cytochrome P450 2C9 (Homo sapiens)
- Assay Info: qHTS Assay for Inhibitors and Substrates of Cytochrome P450 2C9 (AID 883); further: nearly all actives have a fitted effect of over 60% in size
- Setup Conditions: recombinant CYP2C9, luciferin-H luminescence, 60 min; series mostly up to 57.1 µM
Inconclusive results are not listed. Calls of active or inactive are those of the source. The call rests on the fitted dose curve; in most records, active means well fitted inhibition curve with a large enough effect; inconclusive means small, poorly fitted or top-dose-only effect; inactive means no such curve, though single readings can be large or run the other way.
Select the matching outcome among yes (1) (active), no (0) (inactive)

- Cc1cc(O)c2c(c1)C(=O)c1cc(O)cc(O)c1C2=O: yes (1)

Each compound tested received a call. Report the one for COc1cccc2c1cc([N+](=O)[O-])c1c(C(=O)O)cc3c(c12)OCO3 .
no (0)

Each compound tested received a call. Report the one for Cn1cc(C(=O)C(=O)N[C@H]2CN3CCC2CC3)c2ccccc21 .
no (0)

Each compound tested received a call. Report the one for N[C@H](C(=O)O)c1cc(=O)[nH]o1 .
no (0)

Each compound tested received a call. Report the one for C=CCN1C[C@H](C)N([C@H](c2ccc(C(=O)N(CC)CC)cc2)c2cccc(O)c2)C[C@H]1C .
yes (1)
